target: Hsp90-p50^Cdc37 (Homo sapiens); construct: The gene encoding human full-length Hsp90β was subcloned from T47D cell line cDNA; E. coli BL21 (DE3) (GST-p50Cdc37); experiment: ELISA complex formation, immobilized GST-p50^Cdc37 and Hsp90β, unphosphorylated; conditions: ELISA, Hsp90-p50^Cdc37 (unphosphorylated)
pIC50: −log10 of the molar value.
ENDPOINT LABEL: pIC50

IN: What value of pIC50 has been recorded for this entry: Nc1ncnc2c1ncn2[C@@H]1O[C@H](COP(=O)(O)OP(=O)(O)O)[C@@H](O)[C@H]1O [ADP]
OUT: 3.30

IN: Would you kindly repeat that for Nc1ncnc2c1ncn2[C@@H]1O[C@H](COP(=O)(O)OP(=O)(O)OP(=O)(O)O)[C@@H](O)[C@H]1O [ATP] ?
OUT: < 3.00

IN: Would you kindly repeat that for CC(=O)O[C@@H]1C[C@H]2C(C)(C)C(=O)C=C[C@]2(C)[C@H]2CC[C@@]3(C)[C@H](c4ccoc4)OC(=O)[C@H]4O[C@]43[C@@]21C [Gedunin] ?
OUT: < 3.00

IN: Would you kindly repeat that for Nc1ncnc2c1ncn2[C@@H]1O[C@H](COP(=O)(O)OP(=O)(O)NP(=O)(O)O)[C@@H](O)[C@H]1O [AMP-PNP] ?
OUT: < 3.00

IN: Would you kindly repeat that for O=C(O)CCc1nn(Cc2ccc(Cl)cc2Cl)c2cc(C(F)(F)F)ccc12 [H2-GMZ, H2-gamendazole] ?
OUT: < 3.00

###

For UniProt:P08238, measured Kd is reported for the entries below.
ENDPOINT LABEL: Kd (µM)

[
  {
    "COMPOUND": "Nc1ncnc2c1ncn2[C@@H]1O[C@H](COP(=O)(O)OP(=O)(O)OP(=O)(O)O)[C@@H](O)[C@H]1O [ATP]",
    "OBSERVED": 11
  }
]

[I] Nc1ncnc2c1ncn2[C@@H]1O[C@H](COP(=O)(O)OP(=O)(O)O)[C@@H](O)[C@H]1O [ADP]
[II] Nc1ncnc2c1ncn2[C@@H]1O[C@H](COP(=O)(O)OP(=O)(O)NP(=O)(O)O)[C@@H](O)[C@H]1O [AMP-PNP]
IN: // compare: I vs II , metric Kd, want the smaller When you have decided, please share the label of that item.
OUT: I
(I: 13 µM, II: 590 µM)

###

biological target: (p)Hsp90-(p)p50^Cdc37 (Homo sapiens); assay: ELISA complex formation, both proteins CK2-phosphorylated; settings: ELISA, (p)Hsp90-(p)p50^Cdc37 (phosphorylated complex)
Sequence (P08238 whole entry): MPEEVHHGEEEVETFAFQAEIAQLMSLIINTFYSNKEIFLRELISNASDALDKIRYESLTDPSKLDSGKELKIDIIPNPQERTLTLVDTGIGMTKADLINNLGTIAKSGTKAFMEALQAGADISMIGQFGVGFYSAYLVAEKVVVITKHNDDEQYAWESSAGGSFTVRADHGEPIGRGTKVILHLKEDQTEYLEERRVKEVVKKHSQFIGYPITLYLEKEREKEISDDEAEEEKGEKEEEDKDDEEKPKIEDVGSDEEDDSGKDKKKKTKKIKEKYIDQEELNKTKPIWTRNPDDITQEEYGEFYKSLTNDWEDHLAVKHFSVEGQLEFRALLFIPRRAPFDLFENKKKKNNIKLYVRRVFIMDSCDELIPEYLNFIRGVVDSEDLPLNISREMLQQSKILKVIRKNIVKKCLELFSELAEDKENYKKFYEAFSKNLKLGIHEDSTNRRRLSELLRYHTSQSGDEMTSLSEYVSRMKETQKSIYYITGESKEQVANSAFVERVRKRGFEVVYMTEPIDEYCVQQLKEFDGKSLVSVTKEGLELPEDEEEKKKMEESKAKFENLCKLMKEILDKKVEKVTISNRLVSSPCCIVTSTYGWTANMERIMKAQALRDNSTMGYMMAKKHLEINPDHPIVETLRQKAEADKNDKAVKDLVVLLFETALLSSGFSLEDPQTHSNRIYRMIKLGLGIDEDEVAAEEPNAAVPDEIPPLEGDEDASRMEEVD
ENDPOINT LABEL: IC50 (µM)

[I] Nc1ncnc2c1ncn2[C@@H]1O[C@H](COP(=O)(O)OP(=O)(O)O)[C@@H](O)[C@H]1O
[II] Nc1ncnc2c1ncn2[C@@H]1O[C@H](COP(=O)(O)OP(=O)(O)OP(=O)(O)O)[C@@H](O)[C@H]1O
IN: // compare: I vs II , metric IC50, want the smaller When you have decided, please share the label of that item.
OUT: I

###

biological target: ΔHsp90-p50^Cdc37 (Homo sapiens, UniProt P08238, DEL220-271/E274G/I272G/K273G/K275G); construct: human Hsp90β (1-724 Δ220-275); E. coli BL21 (DE3) (GST-p50Cdc37); assay: ELISA complex formation, ΔHsp90
Sequence (P08238 with tags, fused parts or gaps DEL220-271/I272G/K273G/E274G/K275G): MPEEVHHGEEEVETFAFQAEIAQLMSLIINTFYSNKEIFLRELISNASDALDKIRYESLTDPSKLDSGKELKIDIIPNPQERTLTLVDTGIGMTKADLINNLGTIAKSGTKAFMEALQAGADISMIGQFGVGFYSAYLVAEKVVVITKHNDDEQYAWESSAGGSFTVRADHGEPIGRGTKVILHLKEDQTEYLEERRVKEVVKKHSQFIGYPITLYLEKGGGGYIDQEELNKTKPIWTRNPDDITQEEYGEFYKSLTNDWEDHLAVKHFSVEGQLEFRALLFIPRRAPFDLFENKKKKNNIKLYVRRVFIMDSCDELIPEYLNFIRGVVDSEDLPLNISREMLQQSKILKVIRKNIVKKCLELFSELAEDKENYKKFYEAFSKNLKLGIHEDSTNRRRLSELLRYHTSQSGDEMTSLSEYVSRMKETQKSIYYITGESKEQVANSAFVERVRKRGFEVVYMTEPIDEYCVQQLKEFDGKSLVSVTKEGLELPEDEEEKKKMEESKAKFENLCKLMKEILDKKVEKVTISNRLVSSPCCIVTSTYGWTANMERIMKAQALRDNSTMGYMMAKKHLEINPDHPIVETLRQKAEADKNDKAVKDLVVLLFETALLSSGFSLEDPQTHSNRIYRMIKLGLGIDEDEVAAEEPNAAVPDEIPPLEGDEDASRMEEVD
pIC50: −log10 of the molar value.
# reported pIC50; entries follow

[
  {
    "COMPOUND": "Nc1ncnc2c1ncn2[C@@H]1O[C@H](COP(=O)(O)OP(=O)(O)O)[C@@H](O)[C@H]1O [ADP]",
    "pIC50": 3.40
  },
  {
    "COMPOUND": "O=C(O)CCc1nn(Cc2ccc(Cl)cc2Cl)c2cc(C(F)(F)F)ccc12 [H2-GMZ, H2-gamendazole]",
    "pIC50": "< 3.00"
  },
  {
    "COMPOUND": "Nc1ncnc2c1ncn2[C@@H]1O[C@H](COP(=O)(O)OP(=O)(O)OP(=O)(O)O)[C@@H](O)[C@H]1O [ATP]",
    "pIC50": "< 3.00"
  }
]

IN: What value of pIC50 has been recorded for this entry: Nc1ncnc2c1ncn2[C@@H]1O[C@H](COP(=O)(O)OP(=O)(O)NP(=O)(O)O)[C@@H](O)[C@H]1O [AMP-PNP]
OUT: < 3.00

IN: Would you kindly repeat that for CC(=O)O[C@@H]1C[C@H]2C(C)(C)C(=O)C=C[C@]2(C)[C@H]2CC[C@@]3(C)[C@H](c4ccoc4)OC(=O)[C@H]4O[C@]43[C@@]21C [Gedunin] ?
OUT: < 3.00

###

biological target: (p)Hsp90-p50^Cdc37 (Homo sapiens, UniProt P08238); assay: ELISA complex formation, CK2-phosphorylated Hsp90β
pIC50: −log10 of the molar value.
ENDPOINT LABEL: pIC50

IN: Requested read-out pIC50, target or system (p)Hsp90-p50^Cdc37 (Homo sapiens, UniProt P08238), entry CC(=O)O[C@@H]1C[C@H]2C(C)(C)C(=O)C=C[C@]2(C)[C@H]2CC[C@@]3(C)[C@H](c4ccoc4)OC(=O)[C@H]4O[C@]43[C@@]21C
OUT: < 3.00
